growth listing for selected compounds.
- System: UACC-62 melanoma
- assay.name: NCI-60 one-dose screen, 48 h (100 = growth as untreated, 0 = no growth, -100 = all killed)
- condition.set: 10 µM unless noted
About 83,000 compounds went through this panel and 20% of them were active in at least one assay; those are over-represented in the sample as a whole.
Numeric only. Scale: %

Past entries and their recorded results:
{"compound": "O=C1CN2CCC1CC2", "growth [%]": 104}
{"compound": "c1ccc2c(c1)O[As](O[As]1Oc3ccccc3O1)O2", "growth [%]": 43.8}
{"compound": "C=CC[PH+](c1ccccc1)c1ccccc1.C=CC[PH+](c1ccccc1)c1ccccc1.[Pt+2].[S-]c1ncccn1.[S-]c1ncccn1", "growth [%]": 27.7}
{"compound": "Cc1c(C)c(N)c(C)c(C)c1N", "growth [%]": 66.3}
{"compound": "COC12CC3C4=CCOC5CC(=O)N6c7ccccc7C1(CCN2C4)C6C53 (stereo unspecified)", "growth [%]": 104}
{"compound": "C[C@]12CCc3nc(-c4ccc(O)c(O)c4)sc3C1=CC[C@@H]1[C@@H]2CC[C@]2(C)C(=O)CC[C@@H]12", "growth [%]": 91.5}
{"compound": "CCC(=O)C(CC(C)N1CCCCCC1)(c1ccccc1)c1ccccc1 (stereo unspecified)", "growth [%]": 94.4}
{"compound": "Oc1ccccc1C=NCCN=Cc1ccccc1O.[Fe]", "growth [%]": 58.4}
{"compound": "Nc1ccc(S(=O)(=O)F)cc1", "growth [%]": 105}
{"compound": "CCOP(=O)(OCC)C(=O)N(CC)CC", "growth [%]": 107}

Data request: Item under review: C=C[Se]CC(=O)/C=C/c1ccccc1 . Reported growth?
Data returned: 92.4
